# System: Barnyardgrass
# experiment_summary: pre-emergent herbicidal activity, soil incorporation
# Type: in vivo
# condition_description: Table III, 2 WAT, 11.2 kg/h
Please respond with reported pre-emergent herbicidal activity index for every item in the list.

- CCOC(=O)CNCP(=O)(O)OC(C)C#N (stereo not drawn) [Example 5]: 0 (1-24% control)
- CCCCCOC(=O)CNCP(=O)(O)OC(C)C#N (stereo not drawn) [Example 6, hemihydrate]: 0 (1-24% control)
- CC(C#N)OP(=O)(O)CNCC(=O)OCc1ccccc1 (stereo not drawn) [Example 10]: 0 (1-24% control)

Give one value of pre-emergent herbicidal activity index per listed compound.
1. CCOC(=O)CNCP(=O)(O)OC(C#N)CC (stereo not drawn) [Example 8]
2. CCOCCOC(=O)CNCP(=O)(O)OC(C)C#N (stereo not drawn) [Example 9]
3. CC(C#N)OP(=O)(O)CNCC(=O)OCCCl (stereo not drawn) [Example 7]

1. 0 (1-24% control)
2. 0 (1-24% control)
3. 0 (1-24% control)

----------
# Test system: Rice
# experiment_summary: post-emergent herbicidal activity, greenhouse
# Type: in vivo
# condition_description: Table II, 4 WAT, 5.6 kg/h
readout_name: post-emergent herbicidal activity index

Completed entries (count: 2):
* CCCCCOC(=O)CNCP(=O)(O)OC(C)C#N (stereo not drawn) [Example 6, hemihydrate] | 4 (100% control)
* CCOC(=O)CNCP(=O)(O)OC(C#N)CC (stereo not drawn) | 4 (100% control)

Consider the molecule shown here: CCOCCOC(=O)CNCP(=O)(O)OC(C)C#N (stereo not drawn) What is its recorded post-emergent herbicidal activity index?
3 (75-99% control)

----------
Please respond with reported post-emergent herbicidal activity index for every item in the list.
# System: Lambsquarters
# experiment_summary: post-emergent herbicidal activity, greenhouse
# Format: in vivo
# condition_description: Table II, 2 WAT, 1.12 kg/h

Completed entries (count: 3):
- CCOC(=O)CNCP(=O)(OCC(=O)OCC)OCC(=O)OCC [Example 13]: 0 (0-24% control)
- CCOC(=O)CNCP(=O)(OC(C)CC(=O)OCC)OC(C)CC(=O)OCC (stereo not shown) [Example 15]: 0 (0-24% control)
- CCOC(=O)CNCP(=O)(O)OC(C)C(=O)OC (stereo not shown) [Example 28]: 0 (0-24% control)

Please find the next molecule below.
Consider the molecule shown here: CCOC(=O)CNCP(=O)(OCC1COC(C)(C)O1)OCC1COC(C)(C)O1 (stereo not shown) [Example 22] What is its recorded post-emergent herbicidal activity index?
1 (25-49% control)

----------
# Tested on: Smartweed
# experiment_summary: post-emergent herbicidal activity, greenhouse
# Format: in vivo
# condition_description: Table I, 4 WAT, 5.6 kg/h
readout_name: post-emergent herbicidal activity index

• CC(C#N)OP(=O)(O)CNCC(=O)OCCCl (centres unmarked) = 4 (100% control)

Give one value of post-emergent herbicidal activity index per listed compound.
1. CCOC(=O)CNCP(=O)(OC(C)C(=O)OCC)OC(C)C(=O)OCC (centres unmarked)
2. CCOC(=O)CNCP(=O)(O)OCC(Cl)(Cl)Cl
3. CCOC(=O)CNCP(=O)(O)OC(C)C#N (centres unmarked)
4. CCOC(=O)CNCP(=O)(O)OC(C)CC(=O)OCC (centres unmarked)
5. CC(C#N)OP(=O)(CNCC#N)OC(C)C#N (centres unmarked)
6. CCOC(=O)CNCP(=O)(O)OC(C)C(=O)OC (centres unmarked)
7. CCCCCOC(=O)CNCP(=O)(O)OC(C)C#N (centres unmarked) [Example 6, hemihydrate]

1: 0 (0-24% control); 2: 2 (50-74% control); 3: 4 (100% control); 4: 0 (0-24% control); 5: 4 (100% control); 6: 0 (0-24% control); 7: 4 (100% control)
